// reported bioavailability per item
# method.description: Oral bioavailability in mouse
# Format: ADME, organism-based
# run.conditions: in vivo

Completed entries (count: 5):
smiles.str	meas.value
CCc1c(CCCC(=O)O)cccc1-c1nsc(-c2ccc(OC(C)C)c(C#N)c2)n1	87%
CCc1c(CCCC(=O)O)cccc1-c1nnc(-c2ccc(OC(C)C)c(C#N)c2)s1	100%
CCc1c(CCCC(=O)O)cccc1-c1cnc(-c2ccc(OC(C)C)c(C#N)c2)nc1	78%
CCc1c(CCCC(=O)O)cccc1-c1cnc(-c2ccc(OC(C)C)c(C#N)c2)s1	100%
CCc1c(CCN2CCC(C(=O)O)CC2)cccc1-c1nsc(-c2ccc(CC(C)C)c(C#N)c2)n1	45%

Shifting focus to the compound that follows.
Exam item: Suppose we examine the compound CCc1c(CCN2CCC(C(=O)O)CC2)cccc1-c1nsc(-c2ccc(OC(C)C)c(Cl)c2)n1 ; what bioavailability value has been reported?
Marked response: 40%

* * *

# Tested on: Mus musculus
# method.description: Decrease in lymphocyte count in mouse acute lymphopenia model at 1 mg/kg, po after 24 hrs by flow cytometry relative to base line
# Assay type: functional
# Set-up: scale not given: the % may be the effect or the level left
measured.endpoint: Activity (%)
Just the number please, in %, no unit attached.

smiles.str	Activity (%)
CCc1c(CCN2CCC(C(=O)O)CC2)cccc1-c1nsc(-c2ccc(OC(C)C)c(Cl)c2)n1	40
CCc1c(CCCC(=O)O)cccc1-c1cnc(-c2ccc(OC(C)C)c(C#N)c2)s1	62.6
CCc1c(CCCC(=O)O)cccc1-c1nnc(-c2ccc(OC(C)C)c(C#N)c2)s1	43.6
CCc1c(CCCC(=O)O)cccc1-c1cnc(-c2ccc(OC(C)C)c(C#N)c2)nc1	103.2
CCc1c(CCN2CCC(C(=O)O)CC2)cccc1-c1nsc(-c2ccc(CC(C)C)c(C#N)c2)n1	72

# context switch: different compound, same Activity
Exam item: GET /values?readout=Activity&item= CCc1c(CCCC(=O)O)cccc1-c1nsc(-c2ccc(OC(C)C)c(C#N)c2)n1
Marked response: 87.9

* * *

# Species: Homo sapiens
# method.description: Selectivity ratio of EC50 for S1P3 receptor to EC50 for S1P1 receptor
# Lookup of reported Ratio EC50 keyed by entry

smiles.str	measured.endpoint	meas.value
CCc1c(CCN(C)CC(=O)O)cccc1-c1nsc(-c2ccc(OC(C)C)c(C(F)(F)F)c2)n1	Ratio EC50	> 1000
CCc1c(CN2CC(C(=O)O)C2)cccc1-c1nsc(-c2ccc(CC(C)C)c(C#N)c2)n1	Ratio EC50	> 1000
CCc1c(CN2CCC(C(=O)O)CC2)cccc1-c1nsc(-c2ccc(OC(C)C)c(C(F)(F)F)c2)n1	Ratio EC50	> 1000
CCc1c(CN(C)C(C)(C)C(=O)O)cccc1-c1nsc(-c2ccc(OC(C)C)c(C(F)(F)F)c2)n1	Ratio EC50	> 1000
CCc1c(CCN2CCC(C(=O)O)CC2)cccc1-c1nsc(-c2ccc(OC(C)C)c(C(F)(F)F)c2)n1	Ratio EC50	> 1000
CCc1c(CN2CC(C(=O)O)C2)cccc1-c1nsc(-c2ccc(OC(C)C)c(C(F)(F)F)c2)n1	Ratio EC50	> 1000

Exam item: Which measured Ratio EC50 value corresponds to CCc1c(CN2CC(C(=O)O)C2)cccc1-c1nsc(-c2ccc(OC(C)C)c(Cl)c2)n1 ?
Marked response: > 1000

Exam item: Similarly, CCc1c(CCN2CC(C(=O)O)C2)cccc1-c1nsc(-c2ccc(OC(C)C)c(C(F)(F)F)c2)n1 ?
Marked response: > 1000

Exam item: Field entry: CCc1c(CCN2CCC(C(=O)O)CC2)cccc1-c1nsc(-c2ccc(OC(C)C)c(Cl)c2)n1
Marked response: > 1000

Exam item: Next compound: CCc1c(CCNCC(=O)O)cccc1-c1nsc(-c2ccc(OC(C)C)c(C(F)(F)F)c2)n1
Marked response: > 1000

Exam item: Lookup CCc1c(CCN2CCC(C(=O)O)CC2)cccc1-c1nsc(-c2ccc(CC(C)C)c(C#N)c2)n1
Marked response: > 1000
